# protocol summary: viability gain of MRP-1-high H69AR cells under doxorubicin, pilot screen, MRP-1 activator project, CellTiter-Glo, duplicate (AID 807);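 note: compound pretreatment 18-22 h then 72 h combined with doxorubicin; 0% = doxorubicin alone and 100% = vehicle without doxorubicin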
# conditions used: H69AR viability with doxorubicin, CellTiter-Glo luminescence; at 10 µM; stronger effect = higher value
Activity calls are given as the source filed them.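 Rule for the calls: active = viability increase at or above a cutoff of the median across tested compounds plus 3 SD (cut at about 8.5% in these data, passing the limit was not always enough); inconclusive = some gains above the cutoff, reason not given; inactive = the rest.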
readout label: viability increase

Some compounds with recorded viability increase:
compound	viability increase
COc1ccc(Cc2nc(-c3cccs3)no2)cc1OC	0.92% (inactive)
CCC(C)Sc1nnc(Cc2cc(=O)[nH]c(=O)[nH]2)n1-c1ccc(OC)cc1 (stereo not drawn)	-0.09% (inactive)

# evaluate next
Record summary for CCOC(=O)C1CCCN(c2c(Nc3cccc(C)c3)c(=O)c2=O)C1 (stereo not drawn) : reported viability increase = -2.71% (inactive)
